# experimental system: AHR (Mus musculus, UniProt P30561)
# Sequence (P30561 whole entry P471L/N533S/M589L, form open): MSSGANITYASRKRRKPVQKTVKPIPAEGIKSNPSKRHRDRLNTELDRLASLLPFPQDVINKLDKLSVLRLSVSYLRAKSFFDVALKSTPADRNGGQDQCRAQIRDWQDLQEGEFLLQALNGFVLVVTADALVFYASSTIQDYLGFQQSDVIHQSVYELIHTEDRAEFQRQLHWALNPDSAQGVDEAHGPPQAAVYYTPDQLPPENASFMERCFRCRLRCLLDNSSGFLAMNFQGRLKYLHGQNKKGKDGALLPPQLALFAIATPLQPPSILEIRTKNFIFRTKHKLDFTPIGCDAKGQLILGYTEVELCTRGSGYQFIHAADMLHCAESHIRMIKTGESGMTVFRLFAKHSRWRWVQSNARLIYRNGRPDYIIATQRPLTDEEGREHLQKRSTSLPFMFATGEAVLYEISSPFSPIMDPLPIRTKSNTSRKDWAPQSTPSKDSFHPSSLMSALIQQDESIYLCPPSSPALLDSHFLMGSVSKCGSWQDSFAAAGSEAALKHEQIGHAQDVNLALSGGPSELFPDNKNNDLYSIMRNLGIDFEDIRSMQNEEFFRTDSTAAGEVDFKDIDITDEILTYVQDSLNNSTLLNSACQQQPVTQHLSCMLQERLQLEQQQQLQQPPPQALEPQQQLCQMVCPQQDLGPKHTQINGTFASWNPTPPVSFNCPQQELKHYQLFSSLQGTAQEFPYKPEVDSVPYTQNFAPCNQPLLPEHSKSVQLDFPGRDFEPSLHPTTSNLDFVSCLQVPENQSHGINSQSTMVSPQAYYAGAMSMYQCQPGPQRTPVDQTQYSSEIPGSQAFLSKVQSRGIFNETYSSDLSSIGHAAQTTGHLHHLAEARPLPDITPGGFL
# procedure details: In vitro assay 3: antagonism in mouse cell line (AHR transactivation, firefly luciferase reporter, kynurenic acid prestimulated)
# Assay type: cell-based
# run parameters: mouse Hepa 1c1c7 cells, 200 μM kynurenic acid, 20 hours, read-out: AHR Antagonism Mouse IC50
pIC50: −log10 of the molar value.
measurement label: pIC50

Consider the compound "O=C1NCCCC[C@@H]1Nc1nc2c(Br)cccc2c2nc(-c3cccc(F)c3)nn12" and give its measured pIC50.
7.81

Same question, "O=C1NCCCC[C@H]1Nc1nc2ccccc2c2nc(-c3ccc(O)c(F)c3)nn12" this time
6.72

Please answer likewise for "CCC[C@@H](Nc1nc2c(Br)cccc2c2nc(-c3ccc(C#N)cc3)nn12)C(=O)NC"
8.53

What about "O=C1NCCC[C@H]1Nc1nc2ccccc2c2nc(-c3ccccc3OC(F)(F)F)nn12" ?
7.55

Follow-up item: "CC[C@@H](Nc1nc2ccccc2c2nc(-c3ccccc3OC(F)(F)F)nn12)C(N)=O"
8.92

a: COc1ccc(-c2nc3c4cc(Br)ccc4nc(N[C@@H]4CCCCNC4=O)n3n2)cc1
b: O=C1NCC[C@H]1Nc1nc2ccccc2c2nc(-c3cc(C(F)(F)F)ccn3)nn12
# min-compare on pIC50 between a and b Kindly state the label of the option you pick.
b

P: O=C1NCCNC[C@H]1Nc1nc2ccccc2c2nc(-c3cccc(F)c3)nn12
Q: COc1cccc2c1nc(N[C@@H]1CCCCNC1=O)n1nc(-c3cnn(C)c3)nc21
Would you mind telling me which has the lower recorded pIC50 between P and Q ? Please indicate the selected item by its label.
Q
(Q: 6.02, P: 7.33)

----------
# experimental system: AHR (Homo sapiens, UniProt P35869)
# Construct: U87 MG glioblastoma cells (ATCC #HTB-14) endogenously expressing AHR; endogenous in cells; host or cells: U87 MG glioblastoma cells (ATCC #HTB-14)
# Sequence (P35869 11-848): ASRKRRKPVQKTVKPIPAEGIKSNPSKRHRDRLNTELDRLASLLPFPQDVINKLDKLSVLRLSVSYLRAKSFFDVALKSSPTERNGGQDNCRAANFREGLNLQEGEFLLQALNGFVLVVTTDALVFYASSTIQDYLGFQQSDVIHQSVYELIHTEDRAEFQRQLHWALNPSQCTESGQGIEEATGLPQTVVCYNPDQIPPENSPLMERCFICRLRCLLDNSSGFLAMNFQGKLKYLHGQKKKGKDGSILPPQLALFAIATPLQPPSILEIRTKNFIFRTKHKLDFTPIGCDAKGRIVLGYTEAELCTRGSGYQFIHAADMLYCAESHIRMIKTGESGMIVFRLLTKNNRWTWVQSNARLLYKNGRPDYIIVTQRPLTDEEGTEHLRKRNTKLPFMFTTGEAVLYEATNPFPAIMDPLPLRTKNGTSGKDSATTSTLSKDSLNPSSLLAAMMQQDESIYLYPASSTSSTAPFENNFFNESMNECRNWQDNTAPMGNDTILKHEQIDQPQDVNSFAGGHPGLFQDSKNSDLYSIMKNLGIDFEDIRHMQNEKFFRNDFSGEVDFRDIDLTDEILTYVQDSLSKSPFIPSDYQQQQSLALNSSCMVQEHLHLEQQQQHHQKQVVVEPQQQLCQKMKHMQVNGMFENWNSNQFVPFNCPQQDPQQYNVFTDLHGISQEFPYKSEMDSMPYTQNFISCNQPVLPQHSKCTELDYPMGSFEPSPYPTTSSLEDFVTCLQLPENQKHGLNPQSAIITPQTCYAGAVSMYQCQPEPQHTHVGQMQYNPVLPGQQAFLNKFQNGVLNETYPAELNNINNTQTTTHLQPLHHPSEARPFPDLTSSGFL
# procedure details: In vitro assay 1: antagonism in human cell line (AHR transactivation, firefly luciferase reporter, kynurenic acid prestimulated)
# Type: cell-based
# run parameters: AHR Antagonism Human IC50 [M]
measurement label: IC50 (M)

Solved cases (5 shown):
Fill blank: measured IC50 of the compound "Cc1sccc1-c1nc2c3ccccc3nc(N[C@@H]3CCNC3=O)n2n1" is ____.
5.16e-08

And then "CC[C@@H](Nc1nc2ccccc2c2nc(-c3cnn(C)c3)nn12)C(N)=O" , what is it?
7.44e-08

Do the same for "COc1cccc(-c2nc3c4ccccc4nc(N[C@H](CC(C)C)C(=O)O)n3n2)c1" please
1.52e-07

Also, "CS(=O)(=O)c1ccc(-c2nc3c4ccccc4nc(N[C@@H]4CNCCNC4=O)n3n2)cc1" please.
1.64e-07

Likewise for Cn1cc(-c2nc3c4ccccc4nc(NC4CNCCNC4=O)n3n2)cn1 (racemic) [Example 22] ?
5.33e-06

A: O=C1NCCNC[C@H]1Nc1nc2c(C(F)(F)F)cccc2c2nc(-c3cccc(F)c3)nn12
B: CC(C)c1noc(-c2nc3c4ccccc4nc(N[C@@H]4CCCCNC4=O)n3n2)n1
Which value of IC50 is greater, the one for A or the one for B ? // output: label of the selected item
B
(B: 1.92e-08 M, A: 5.89e-10 M)
